test system: K-562 leukemia; assay: NCI tumour cell line growth inhibition, 48 h
Parameter measured: TGI

Take a look at these entries with their results.
C/C(=N\NC(N)=S)c1cc(C)c(C)cc1C
> 100 µM
CCOc1ccc(-c2cnnn2-c2nonc2-n2cccc2)cc1
> 100 µM
Nc1ccc2nc(NCc3ccc(F)cc3)cnc2c1
> 100 µM
CN(Cc1ccc(Cl)cc1)c1ccc(CO)c(Cl)c1
> 65.7 µM
O=C(N/N=C(/COc1ccc(Cl)cc1)N=Cc1cccnc1)c1ccncc1
> 100 µM
Cn1cc(C2=C(c3cn(CCO)c4ccccc34)C(=O)NC2=O)c2ccccc21
> 25 µM
CCCN1CC=C(c2cc(C(=O)OCC)[nH]c2-c2cc(C)no2)C1=O
> 100 µM
CO/C=C(/C(=O)OC)c1ccccc1[C@@H]1CC1c1cccc(F)c1 (some centres not stated)
> 100 µM

Tell me its TGI given `c1ccc2c(c1)sc1c3cnccc3ccc21` as the entry.
> 100 µM

Tell me its TGI given `Cc1ccccc1C1=[N+]([O-])c2ccccc2C1=O` as the entry.
45.7 µM

Tell me its TGI given CN(C)CCC(O)(c1ccccc1)C(O)(CCN(C)C)c1ccccc1 (configuration not stated) as the entry.
> 100 µM

Tell me its TGI given `CN(C)c1nc(N(C)C)nc(N(C)CN(C)c2ccc(Cl)cc2)n1` as the entry.
> 100 µM

Tell me its TGI given CC(C)(C)OC(=O)NCC(=O)NC1c2ccsc2/C(=N/O)[C@H]1O (some centres not stated) as the entry.
> 100 µM

Tell me its TGI given `C=CCc1cc(-c2cc(CC=C)c(O)c(CNC)c2)cc(CNC)c1O` as the entry.
27.3 µM

Tell me its TGI given `COc1ccc(/C=C2\C(=O)N(C)C(=O)c3cc(OC)c(OC)cc32)cc1OC` as the entry.
> 100 µM

Tell me its TGI given CS(=O)(=O)OC1CN2CCC1CC2 (configuration not stated) as the entry.
> 100 µM

Tell me its TGI given `N/C(=C\C(=O)n1nc(-c2ccccc2)cc1N)c1ccccc1` as the entry.
24.4 µM

Tell me its TGI given `O=C(O)c1cc(=O)[nH]c(SCc2ccccc2)n1` as the entry.
> 100 µM

Tell me its TGI given NC(=O)c1cccc(C2OC(COP(=O)(O)O)C(O)C2O)c1 (configuration not stated) as the entry.
> 50 µM

Tell me its TGI given `COc1ccc2c(c1)=C(C=C1C=CN(O)C=C1)C(=O)N=2` as the entry.
> 100 µM

Tell me its TGI given COc1cc(/C=C2/SC(c3ccccc3)N(c3cccc(Cl)c3)C2=O)cc(OC)c1OC (configuration not stated) as the entry.
> 100 µM

Tell me its TGI given C#CCNC(=O)NCCCC(NC(C)=O)C(=O)NCc1ccccc1 (configuration not stated) as the entry.
> 100 µM

Tell me its TGI given N#CC(c1ccnc(Cl)n1)c1nc2ccccc2s1 (configuration not stated) as the entry.
76.2 µM

Tell me its TGI given CC1(C)C2CCC(CN)(C2)C1O (configuration not stated) as the entry.
> 100 µM

Tell me its TGI given `S=C(N/N=C(/c1ccccc1)c1ccccn1)N1CCCCC1` as the entry.
< 0.001 µM

Tell me its TGI given `N#Cc1cccc(OCc2nc(N)nc(N)c2-c2ccc(Cl)c(Cl)c2)c1` as the entry.
> 100 µM

Tell me its TGI given `O=c1c2c3c(sc2n2c(-c4cc(-c5ccccc5)no4)nnc2n1Cc1ccccc1)CCCC3` as the entry.
> 68.1 µM

Tell me its TGI given `Nc1ccc(-c2cssc2=S)cc1` as the entry.
> 100 µM

---

system: MCF7 breast; assay: NCI tumour cell line growth inhibition, 48 h; in the data active = GI50 below about 0.43 µM; inactive = the rest
// classify into active, inactive

Worked examples, 3 compounds total:
CC/C(=C(/c1ccc(OCCN(C)C)cc1)c1ccc(OC(=O)CCC(=O)c2c(C)[nH]c(/C=C3\N=C(c4ccc[nH]4)C=C3OC)c2C)cc1)c1ccccc1
active
O=c1c2ccccc2c(Br)c(Br)c2ccccc12
inactive
COc1cc2c(cc1OCCCCCOc1cc3c(cc1OC)C(=O)N1CC(F)C[C@H]1C=N3)N=C[C@@H]1CC(F)CN1C2=O (some centres undefined)
active

// next entry
Answer briefly: the call reported for `COc1cc(-n2cc(-c3ccc(F)cc3)nc2SCc2ccccc2)cc(OC)c1OC` in this assay.
inactive

---

The following molecules are listed with their measured TGI values.
system: MDA-N; test: NCI tumour cell line growth inhibition, 48 h

Take a look at these entries with their results.
Cc1ccc(Cc2n[nH]c(=O)n2-c2ccccc2)cc1
> 100 µM
CCCN1CC=C(c2cc(C(=O)OCC)[nH]c2-c2cc(C)no2)C1=O
> 100 µM
Cc1cc(NS(=O)(=O)c2ccc(NC(=O)c3ccc4[nH]c5ccccc5c(=O)c4c3)cc2)no1
> 100 µM
CS(=O)(=O)OC1CN2CCC1CC2 (stereo unspecified)
> 100 µM
N#Cc1n[nH]n(C2CCCCC2)c1=O
> 100 µM
CC(C)c1nc2cc(C(F)(F)F)ccc2[nH]c1=O
> 100 µM
COC(=O)CC1C(COC(C)=O)OC(n2cc(C)c(=O)[nH]c2=O)C1OC(C)=O (stereo unspecified)
> 100 µM
O=C(N/N=C(/COc1ccc(Cl)cc1)N=Cc1cccnc1)c1ccncc1
65.8 µM

Tell me its TGI given `CN(C)c1ccc(/C=C(\NC(=O)c2ccccc2)C(=O)NCC(=O)O)cc1` as the entry.
> 100 µM

Tell me its TGI given `O=c1[nH]c2ccc(Cl)cc2c2oc(-c3ccccc3)nc12` as the entry.
> 100 µM

Tell me its TGI given `O=c1cc(-c2ccc(O)cc2)n(C2CC2)c2ccccc12` as the entry.
26.2 µM

---

tested on: SF-539 CNS; assay: NCI tumour cell line growth inhibition, 48 h
Parameter measured: TGI

Take a look at these entries with their results.
C=[N+](CNC(=O)CNC(=O)C(Cc1ccc([N+](=O)[O-])cc1)NC(=O)OC(C)(C)C)C(=O)CNC(=O)C(Cc1ccc([N+](=O)[O-])cc1)NC(=O)OC(C)(C)C (configuration not stated)
57.9 µM
Cc1cc(NS(=O)(=O)c2ccc(NC(=O)c3ccc4[nH]c5ccccc5c(=O)c4c3)cc2)no1
> 100 µM
Cc1ccc(Cc2n[nH]c(=O)n2/N=C\CC/C=N\n2c(Cc3ccc(C)cc3)n[nH]c2=O)cc1
24.9 µM
N#Cc1cccc(OCc2nc(N)nc(N)c2-c2ccc(Cl)c(Cl)c2)c1
65.4 µM

Next molecule, please.
Tell me its TGI given `O=c1[nH]c2ccc(Cl)cc2c2oc(-c3ccccc3)nc12` as the entry.
> 100 µM

---

system: 786-0 renal; test: NCI tumour cell line growth inhibition, 48 h
The following compounds are listed with their measured TGI values.

CC(C)c1nc2cc(C(F)(F)F)ccc2[nH]c1=O
> 100 µM
O=C(N/N=C(/COc1ccc(Cl)cc1)N=Cc1cccnc1)c1ccncc1
> 100 µM
c1ccc2c(c1)sc1c3cnccc3ccc21
> 100 µM
CN(C)CCC(O)(c1ccccc1)C(O)(CCN(C)C)c1ccccc1 (stereo unspecified)
> 100 µM
CCCCCCc1cc2cc(-c3nc4ccccc4[nH]3)c(=Nc3ccccc3C)oc2cc1O
3.43 µM

Next compound, please.
Tell me its TGI given `Cc1cc(NCCCNc2ccnc3cc(Cl)ccc23)nc(N2CCN(C)CC2)n1` as the entry.
38.3 µM

---

tested on: NCI-H522 lung; experiment: NCI tumour cell line growth inhibition, 48 h
Parameter measured: GI50

Take a look at these entries with their results.
Cn1cc(C2=C(c3cccc(N)c3)C(=O)NC2=O)c2ccccc21
15.5 µM
COc1ccc(-n2cc(-c3cc(OC)c(OC)c(OC)c3)nc2SCc2ccccc2)cc1
31.5 µM
COc1cc(-c2nc3sccn3c2-c2ccnc(NCCNS(=O)(=O)c3ccc(Cl)cc3)n2)ccc1F
2.59 µM
CCCCOc1ccc(NC(=O)n2nc(N)c3ccccc32)cc1
23.9 µM

Tell me its GI50 given `O=c1c2c3c(sc2n2c(-c4cc(-c5ccccc5)no4)nnc2n1Cc1ccccc1)CCCC3` as the entry.
3.4 µM

---

The following compounds are listed with their measured TGI values.
test system: HT29 colon; assay: NCI tumour cell line growth inhibition, 48 h

COc1ccc(NC(=O)CC(=O)N2N=C(c3ccccc3)C(N=Nc3ccc(S(=O)(=O)CCOS(=O)(=O)O)cc3)C2=O)cc1 (stereo not given)
> 100 µM
O=C1CCCC2C(O)CCC[C@H]12 (stereo not given in full)
> 100 µM
CC(=O)N1c2ccccc2C2=CC3C4C(=O)N(c5ccccc5)C(=O)C4C21C1C(=O)N(c2ccccc2)C(=O)C31 (stereo not given)
> 100 µM
Cn1c(N)c(C(N)=O)[nH]c1=S
> 100 µM

Next compound, please.
Tell me its TGI given `CC/C(=C(/c1ccc(OCCN(C)C)cc1)c1ccc(OC(=O)CCC(=O)c2c(C)[nH]c(/C=C3\N=C(c4ccc[nH]4)C=C3OC)c2C)cc1)c1ccccc1` as the entry.
11.1 µM
